assay_system: TxtE (Streptomyces scabiei)

mol_smiles: N[C@@H](Cc1c[nH]c2ccccc12)C(=O)O
Kd [µM]: 24.8

* * *

assay_system: TxtE-BM3R (UniProt C9ZDC6)
measurement_type: Kd (µM)

molecule: N[C@@H](Cc1c[nH]c2ccccc12)C(=O)O [L-tryptophan]
result_number: 20.8

* * *

assay_system: TxtE-RhFRed (Streptomyces scabiei)
measurement_notes: Substrate binding affinity by UV-Vis spectral titration, TxtE-RhFRed*
Parameters: species or system S. scabies 87.22
experimental_parameters: […] enzyme, 25 mM Tris-HCl pH 8.0
Method: Purified TxtE and its fusion enzymes were spectrally analyzed following a previous protocol (Ding et al. 2008). Briefly, the absorbance spectra (400-600 nm) of TxtE variants ([…]) in Tris-HCl (25 mM, pH 8) buffer were recorded with a Shimadzu UV2700 dual beam UV-Vis spectrophotometer. The ferric heme of enzymes was then saturated with carbon monoxide (Airgas) through bubbling and the spectra of the saturated enzyme solutions were recorded. […] Data were further analyzed by GraphPad Prism 4. […]
pKd: −log10 of the molar value.
measurement_type: pKd

mol_smiles: N[C@@H](Cc1c[nH]c2ccccc12)C(=O)O
measurement_type: pKd
result_number: 4.61
